Data origin, for the record: PubChem BioAssay AID485298

# run description: qHTS Assay for Small Molecule Inhibitors of Mitochondrial Division or Activators of Mitochondrial Fusion; note: nearly all actives have a fitted effect of over 45% in size; note: potency is the fitted concentration of half-maximal effect
# recorded conditions: S. cerevisiae fusion-defective mutant growth rescue, CellTiterGlo 48 h; series mostly up to 46.1 µM
Hit rate of the full screen: of about 320,000 compounds, about 740 (0.23%) were called active. About 2% were inconclusive and are not listed. This is one part of a sample in which actives are shown more often than they occur.
reported property: Potency

Sample records with Potency:
{"compound": "O=C(c1ccc(C(F)(F)F)cc1)C1CCCN(C(=O)c2csnn2)C1 (stereo not given)", "Potency": "inactive"}
{"compound": "Cc1c(C(=O)N2CCCc3ccccc32)oc2ccccc12", "Potency": "inactive"}
{"compound": "COC(=O)c1c(NC(=O)c2cccs2)sc2c1CCCC2", "Potency": "14.1 µM (active)"}
{"compound": "C=CCn1c(CCNC(=O)c2ccccc2F)nnc1SCC(=O)Nc1ccc(OC)cc1", "Potency": "inactive"}
{"compound": "Cc1ccc(C2C=C(c3ccc(Cl)cc3)Nc3nc(NC(=O)CCC(=O)O)nn32)cc1 (stereo not given)", "Potency": "inactive"}

# context switch: different compound, same Potency
**Query** Identify measured Potency associated with CC1CC2C3CCC4=CC(=O)C=C[C@]4(C)[C@@]3(F)[C@@H](O)C[C@]2(C)[C@@]1(O)C(=O)CO (stereo not given in full)
**Result** inactive
